# method_notes: Serum hydrolysis of hK2 substrates
# Format: in vitro ADME
# applied_conditions: Table 5; 50% fresh human serum in 50 mM Tris, 0.1 M NaCl, pH 7.8
experimental_endpoint: Serum Hydrolysis Rate (FU/hr)

SEQ ID NO: 97: hK2 substrate peptide, single letter sequence P7-P′1 (GHEQKRRA; listed as Homo sapiens) ... 0.06
SEQ ID NO: 94: hK2 substrate peptide, single letter sequence P6-P′1 (GGKSRRL; listed as Homo sapiens) ... 0.03
SEQ ID NO: 102: hK2 substrate peptide, single letter sequence P6-P′1 (GGKAFRL; listed as Homo sapiens) ... 0.07
SEQ ID NO: 118: hK2 substrate peptide, single letter sequence P6-P′1 (GGKARNL; listed as Homo sapiens) ... 0.25

###

# method_notes: Serum hydrolysis of hK2 substrates
# Format: in vitro ADME
# applied_conditions: Table 5; 50% fresh human serum in 50 mM Tris, 0.1 M NaCl, pH 7.8
experimental_endpoint: Serum Hydrolysis Rate

SEQ ID NO: 104: hK2 substrate peptide, single letter sequence P6-P′1 (GGKAQRL; listed as Homo sapiens) ... 0.04 FU/hr
SEQ ID NO: 108: hK2 substrate peptide, single letter sequence P7-P′1 (GHEQARRL; listed as Homo sapiens) ... 0.14 FU/hr

Source of measurements: patent US8450280B2
